Target: human 5-HT2AR (Homo sapiens, UniProt P28223)
Sequence (P28223 whole entry): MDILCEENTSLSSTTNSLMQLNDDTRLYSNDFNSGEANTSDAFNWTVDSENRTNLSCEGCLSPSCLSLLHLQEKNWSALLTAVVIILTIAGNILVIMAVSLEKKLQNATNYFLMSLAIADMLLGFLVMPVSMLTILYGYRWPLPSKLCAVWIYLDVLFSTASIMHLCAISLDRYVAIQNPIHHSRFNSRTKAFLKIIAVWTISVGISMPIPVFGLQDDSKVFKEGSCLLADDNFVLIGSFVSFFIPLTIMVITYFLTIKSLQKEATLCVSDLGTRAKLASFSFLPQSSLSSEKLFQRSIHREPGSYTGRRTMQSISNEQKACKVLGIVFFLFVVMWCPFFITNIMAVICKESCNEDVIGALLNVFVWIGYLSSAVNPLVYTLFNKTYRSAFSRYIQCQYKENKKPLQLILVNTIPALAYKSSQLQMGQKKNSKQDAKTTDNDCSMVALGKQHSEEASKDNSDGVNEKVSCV
Experiment: HTRF-based IP1 accumulation assay (5-HT2AR antagonistic effect)
Details: HEK293 cells overexpressing human 5-HT2AR; serotonin at EC80
pIC50: −log10 of the molar value.
property_name: pIC50

molecule: O=C(NC[C@@H]1CCCO1)c1ccc(C#Cc2ccc(F)cc2)cc1 [Example 111]
assayed_target: human 5-HT2AR (Homo sapiens, UniProt P28223)
reading: 6.30 to 7.00

molecule: O=C(NCC1(NC2CC2)CCCCC1)c1ccc(C#Cc2ccc(F)cc2)cc1 [Example 19]
assayed_target: human 5-HT2AR (Homo sapiens, UniProt P28223)
reading: > 7.00

molecule: O=C(NCC1(F)CCOCC1)c1ccc(C#Cc2ccccc2F)cc1 [Example 48]
assayed_target: human 5-HT2AR (Homo sapiens, UniProt P28223)
reading: 6.00 to 6.30

molecule: COC1(CNC(=O)c2ccc(C#Cc3ccccc3F)cc2)CCCCC1 [Example 65]
assayed_target: human 5-HT2AR (Homo sapiens, UniProt P28223)
reading: 6.00 to 6.30

molecule: [2H]C([2H])(NC(=O)c1ccc(C#Cc2ccccc2F)cc1)C1CCOCC1 [Example 68]
assayed_target: human 5-HT2AR (Homo sapiens, UniProt P28223)
reading: 6.00 to 6.30

molecule: O=C(NCC1(c2cccnc2)CCCC1)c1ccc(C#Cc2ccccc2F)cc1 [Example 34]
assayed_target: human 5-HT2AR (Homo sapiens, UniProt P28223)
reading: 5.70 to 6.00

Could you now consider this next molecule?
GET /values?readout=pIC50&item= NC(=O)CC1(CNC(=O)c2ccc(C#Cc3ccccc3F)cc2)CCOCC1 [Example 78]
5.70 to 6.00

* * *

Tested on: physical (tactile) allodynia in spinal nerve ligation model
Experiment: Analgesic efficacy experiment using animal model (Chung model, spinal nerve ligation)
Type: in vivo, Sprague-Dawley rats
Details: rat, oral, 100 mpk, 2 h; read-out: % reversal (2 h)
Below, each entry is listed alongside its reported inhibition in vivo at 100 mg/kg.
Kindly answer with a numeric value in %, unit omitted.

Below, each entry is followed by its recorded inhibition in vivo at 100 mg/kg result.
compound: O=C(NCC1(NC2CC2)CCCCCC1)c1ccc(C#Cc2ccccc2F)cc1 [Example 12]
reading: 74.8

compound: CC1(CNC(=O)c2ccc(C#Cc3ccccc3F)cc2)COC1 [Example 52]
reading: 101

compound: O=C(NCC1(NC2CC2)CCCCCC1)c1ccc(C#Cc2ccccn2)cc1 [Example 1]
reading: 85.7

compound: CC(C)NC1(CNC(=O)c2ccc(C#Cc3ccccc3)cc2)CCCCC1 [Example 55]
reading: 80.2

compound: CC(NC(=O)c1ccc(C#Cc2ccccc2F)cc1)C1CCOCC1 (stereo not shown) [Example 42]
reading: 88.1

compound: O=C(NC[C@@H]1CCCO1)c1ccc(C#Cc2ccccc2F)cc1 [Example 46]
reading: 99.8

compound: O=C(NCC1(NC2CC2)CCC1)c1ccc(C#Cc2ccccc2F)cc1 [Example 9]
reading: 59.6

compound: O=C(NCC1(NC2CC2)CCCC1)c1ccc(C#Cc2ccccc2F)cc1 [Example 11]
reading: 57.4

GET /values?readout=inhibition in vivo at 100 mg/kg&item= O=C(NCC1(CO)CCCCC1)c1ccc(C#Cc2ccccc2F)cc1 [Example 37]
18.8

Please give the result for O=C(NCC1(NC2CC2)CCCCC1)c1ccc(C#Cc2ccccc2F)cc1 [Example 20] too.
67

* * *

Target: human 5-HT2AR (Homo sapiens, UniProt P28223)
Assay: HTRF-based IP1 accumulation assay (5-HT2AR antagonistic effect)
Details: HEK293 cells overexpressing human 5-HT2AR; serotonin at EC80
Below, each entry is listed alongside its reported IC50.

Below, each entry is followed by its recorded IC50 result.
compound: CCC1(CNC(=O)c2ccc(C#Cc3ccc(F)cc3)cc2)COC1 [Example 112]
property_name: IC50
reading: 100 to 500 nM
//
compound: O=C(NCC1CCC(F)(F)CC1)c1ccc(C#Cc2ccc(F)cc2F)cc1 [Example 121]
property_name: IC50
reading: 500 to 1000 nM
//
compound: COC(=O)CC1(CNC(=O)c2ccc(C#Cc3ccccc3F)cc2)CCCCC1 [Example 74]
property_name: IC50
reading: 500 to 1000 nM

GET /values?readout=IC50&item= O=C(O)CCC1(CNC(=O)c2ccc(C#Cc3ccccc3F)cc2)CCOCC1 [Example 60]
500 to 1000 nM

Please give the result for O=C(NCC1(N2CCOCC2)CCCC1)c1ccc(C#Cc2ccccc2F)cc1 [Example 23] too.
100 to 500 nM

Please give the result for O=C(NCC1(NC2CC2)CCCC1)c1ccc(C#Cc2ccccc2F)cc1 [Example 11] too.
< 100 nM

* * *

Below, each entry is listed alongside its reported IC50.
Target: mGluR5 (Homo sapiens, UniProt P41594)
Sequence (P41594 21-1212): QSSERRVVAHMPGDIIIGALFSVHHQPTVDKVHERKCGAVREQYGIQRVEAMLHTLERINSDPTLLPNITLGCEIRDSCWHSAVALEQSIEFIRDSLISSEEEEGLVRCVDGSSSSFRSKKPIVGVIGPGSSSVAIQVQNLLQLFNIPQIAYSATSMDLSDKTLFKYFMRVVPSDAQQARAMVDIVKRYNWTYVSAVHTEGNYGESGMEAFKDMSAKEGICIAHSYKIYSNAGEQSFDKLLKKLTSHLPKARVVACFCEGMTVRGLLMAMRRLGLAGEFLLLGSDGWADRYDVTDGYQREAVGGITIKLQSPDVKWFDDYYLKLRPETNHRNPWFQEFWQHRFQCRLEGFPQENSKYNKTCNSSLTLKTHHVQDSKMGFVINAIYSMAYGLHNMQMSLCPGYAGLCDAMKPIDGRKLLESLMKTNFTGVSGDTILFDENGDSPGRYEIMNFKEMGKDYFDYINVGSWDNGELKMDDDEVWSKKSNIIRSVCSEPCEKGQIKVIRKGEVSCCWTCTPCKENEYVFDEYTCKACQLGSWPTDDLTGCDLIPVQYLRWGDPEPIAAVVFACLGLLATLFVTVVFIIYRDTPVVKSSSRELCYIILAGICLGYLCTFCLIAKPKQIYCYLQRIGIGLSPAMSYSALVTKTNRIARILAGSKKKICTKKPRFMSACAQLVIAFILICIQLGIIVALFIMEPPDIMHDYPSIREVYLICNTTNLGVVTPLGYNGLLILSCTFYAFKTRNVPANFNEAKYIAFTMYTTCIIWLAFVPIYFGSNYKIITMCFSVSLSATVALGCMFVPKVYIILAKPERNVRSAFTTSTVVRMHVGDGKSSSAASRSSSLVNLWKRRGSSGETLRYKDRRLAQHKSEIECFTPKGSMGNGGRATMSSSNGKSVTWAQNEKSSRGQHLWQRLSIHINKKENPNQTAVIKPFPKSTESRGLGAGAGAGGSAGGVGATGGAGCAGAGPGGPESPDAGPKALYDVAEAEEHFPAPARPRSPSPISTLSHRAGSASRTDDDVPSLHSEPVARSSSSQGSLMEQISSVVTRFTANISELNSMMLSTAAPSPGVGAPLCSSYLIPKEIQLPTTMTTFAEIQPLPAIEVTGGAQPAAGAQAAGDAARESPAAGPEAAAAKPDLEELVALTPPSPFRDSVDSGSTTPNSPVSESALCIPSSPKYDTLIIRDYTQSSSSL
Experiment: Fluorescence-based Ca2+ mobilization assay
Details: HEK293 cells overexpressing mGluR5; L-glutamate at EC80

molecule: CC1(CNC(=O)c2ccc(C#Cc3ccc(F)cc3F)cc2)CCCO1 (stereo not drawn) [Example 119]
IC50: < 100 nM
--
molecule: CC(C)NC1(CNC(=O)c2ccc(C#Cc3ccccc3F)cc2)CCOCC1 [Example 24]
IC50: 100 to 500 nM
--
molecule: COC(=O)CCC1(CNC(=O)c2ccc(C#Cc3ccccc3F)cc2)CCCCC1 [Example 59]
IC50: 100 to 500 nM
--
molecule: O=C(NCC1(NC2CC2)CCCCCC1)c1ccc(C#Cc2ccccn2)cc1 [Example 1]
IC50: 1000 to 2000 nM
--
molecule: CC(C)NC1(CNC(=O)c2ccc(C#Cc3ccccc3F)cc2)CCCC1 [Example 30]
IC50: 500 to 1000 nM

GET /values?readout=IC50&item= O=C(NCC1(NC2CC2)CCC1)c1ccc(C#Cc2ccc(F)cn2)cc1 [Example 4]
1000 to 2000 nM

Please give the result for CC1(CNC(=O)c2ccc(C#Cc3ccc(F)cc3)cc2)CCCO1 (stereo not drawn) [Example 116] too.
< 100 nM

Please give the result for O=C(NC[C@H]1CCCO1)c1ccc(C#Cc2ccc(F)cc2)cc1 [Example 110] too.
< 100 nM

Please give the result for COC1(CNC(=O)c2ccc(C#Cc3ccccc3F)cc2)CCOCC1 [Example 66] too.
< 100 nM

* * *

Below, each entry is listed alongside its reported pIC50.
Target: mGluR5 (Homo sapiens, UniProt P41594)
Test: Fluorescence-based Ca2+ mobilization assay
Conditions: HEK293 cells overexpressing mGluR5; L-glutamate at EC80
pIC50: −log10 of the molar value.

Below, each entry is followed by its recorded pIC50 result.
compound: O=C(NCC1CC(F)(F)C1)c1ccc(C#Cc2ccc(F)cc2F)cc1
reading: 6.30 to 7.00
//
compound: CNC(=O)C1(CNC(=O)c2ccc(C#Cc3ccccc3F)cc2)CCOCC1
reading: 6.00 to 6.30
//
compound: O=C(NCC1(NC2CC2)CCCCCC1)c1ccc(C#Cc2ccccc2F)cc1
reading: 6.30 to 7.00
//
compound: O=C(NCC1CCOCC1)c1ccc(C#Cc2ccc(F)cc2F)cc1
reading: 6.00 to 6.30

GET /values?readout=pIC50&item= O=C(NCC1COCCO1)c1ccc(C#Cc2ccccc2F)cc1 (stereo not shown)
> 7.00

Please give the result for `C[C@@H](NC(=O)c1ccc(C#Cc2ccccc2F)cc1)C1CCOCC1` too.
> 7.00

Please give the result for `O=C(O)CCC1(CNC(=O)c2ccc(C#Cc3ccccc3F)cc2)CCOCC1` too.
6.00 to 6.30

Please give the result for `CC1(CNC(=O)c2ccc(C#Cc3ccccc3F)cc2)COC1` too.
> 7.00

Please give the result for `CCC1(CNC(=O)c2ccc(C#Cc3ccc(F)cc3)cc2)COC1` too.
6.30 to 7.00

Please give the result for `O=C(NCC1(NC2CC2)CCCC1)c1ccc(C#Cc2ccc(F)c(F)c2)cc1` too.
5.70 to 6.00

Please give the result for `O=C(NCC1(NC2CC2)CCCCCC1)c1ccc(C#Cc2ccc(F)cn2)cc1` too.
6.00 to 6.30

Please give the result for `O=C(NCC1(CC2CC2)CCOCC1)c1ccc(C#Cc2ccccc2F)cc1` too.
6.30 to 7.00

Please give the result for O=C(NCC1CCOC1)c1ccc(C#Cc2ccccc2F)cc1 (stereo not shown) too.
> 7.00

Please give the result for `COC(=O)CC1(CNC(=O)c2ccc(C#Cc3ccccc3F)cc2)CCOCC1` too.
6.30 to 7.00

Please give the result for `CC1(CNC(=O)c2ccc(C#Cc3ccc(F)cc3)cc2)COC1` too.
> 7.00

Please give the result for `CC(C)NC1(CNC(=O)c2ccc(C#Cc3ccccc3)cc2)CCCCC1` too.
5.70 to 6.00

Please give the result for `O=C(NCC1(NC2CC2)CCCCCC1)c1ccc(C#Cc2ccc(F)c(F)c2)cc1` too.
5.70 to 6.00

Please give the result for `O=C(NC[C@H]1CCCO1)c1ccc(C#Cc2ccc(F)cc2F)cc1` too.
> 7.00

Please give the result for `O=C(NCC1(NC2CC2)CCCCCC1)c1ccc(C#Cc2ccncc2F)cc1` too.
6.00 to 6.30

Please give the result for `O=C(NC[C@H]1CCOC1)c1ccc(C#Cc2ccccc2F)cc1` too.
6.30 to 7.00

Please give the result for O=C(NCC1CCOC1)c1ccc(C#Cc2ccc(F)cc2)cc1 (stereo not shown) too.
6.30 to 7.00

Please give the result for `O=C(NC[C@H]1CCCOC1)c1ccc(C#Cc2ccc(F)cc2)cc1` too.
> 7.00

Data origin: patent US12435051B2
